meta.source: patent US6872805B2

Target: NS3/4A J4L6S strain (Hepatitis C virus genotype 1b, UniProt O92972, C1454S/C1711G)
Construct: DNA encoding the recombinant HCV NS3/4A protease complex (amino acid 1027 to 1711) for these strains; inferred from pET21b vector and Ni-NTA purification
Assay: Recombinant HCV NS3/4A protease complex FRET peptide assay, J4L6S strain
measuredEndpoint: IC50 (nM)
One number for each entry, in nM.

Req: Name the recorded IC50 for C=CC1C[C@]1(NC(=O)[C@@H]1C[C@@H](Oc2cc(-c3ccccc3)nc3cc(OC)ccc23)CN1C(=O)C(NC(=O)OC(C)(C)C)C(C)(C)C)C(=O)NS(=O)(=O)c1ccc(NC(C)=O)cc1 (stereo partly shown) .
Resp: 8

====

Tested on: HCV replicon in Huh7 cells
Test: HCV replicon cell-based assay
Set-up: species or system HCV strain 1B
Conditions: Hepatitis C virus, Huh-7, 96 h; HCV replicon, Huh7 cells, 4 days; activity ranges; read-out: EC50
What EC50 was measured for each of the following?

Reference set (2 entries):
C=C[C@@H]1C[C@]1(NC(=O)C1CC(Oc2cc(-c3ccccc3)nc3cc(OC)ccc23)CN1C(=O)[C@@H](NC(=O)C(=O)OC)C(C)(C)C)C(=O)NS(=O)(=O)C1CC1 (stereo partly drawn); < 500 nM
CCC1C[C@]1(NC(=O)[C@@H]1C[C@@H](Oc2cc(-c3ccccc3)nc3cc(OC)ccc23)CN1C(=O)[C@@H](NC(=O)OC(C)(C)C)C(C)(C)C)C(=O)NS(=O)(=O)C1CC1 (stereo in doubt); < 50 nM

Next:
Req: Notebook entry, HCV replicon in Huh7 cells assay: EC50 of C=C[C@@H]1C[C@]1(NC(=O)C1C[C@@H](Oc2cc(-c3ccccc3)nc3cc(OC)ccc23)CN1C(=O)[C@@H](NC(=O)CO)C(C)(C)C)C(=O)NS(=O)(=O)C1CC1 (stereo partly drawn) = ?
Resp: < 500 nM

====

Please go through the items and note down their pIC50.
Target: HCV NS3/4A protease complex (Hepatitis C virus genotype 1a, UniProt P27958, C1454S/C1711G)
Sequence (P27958 1027-1711, stated change not applied): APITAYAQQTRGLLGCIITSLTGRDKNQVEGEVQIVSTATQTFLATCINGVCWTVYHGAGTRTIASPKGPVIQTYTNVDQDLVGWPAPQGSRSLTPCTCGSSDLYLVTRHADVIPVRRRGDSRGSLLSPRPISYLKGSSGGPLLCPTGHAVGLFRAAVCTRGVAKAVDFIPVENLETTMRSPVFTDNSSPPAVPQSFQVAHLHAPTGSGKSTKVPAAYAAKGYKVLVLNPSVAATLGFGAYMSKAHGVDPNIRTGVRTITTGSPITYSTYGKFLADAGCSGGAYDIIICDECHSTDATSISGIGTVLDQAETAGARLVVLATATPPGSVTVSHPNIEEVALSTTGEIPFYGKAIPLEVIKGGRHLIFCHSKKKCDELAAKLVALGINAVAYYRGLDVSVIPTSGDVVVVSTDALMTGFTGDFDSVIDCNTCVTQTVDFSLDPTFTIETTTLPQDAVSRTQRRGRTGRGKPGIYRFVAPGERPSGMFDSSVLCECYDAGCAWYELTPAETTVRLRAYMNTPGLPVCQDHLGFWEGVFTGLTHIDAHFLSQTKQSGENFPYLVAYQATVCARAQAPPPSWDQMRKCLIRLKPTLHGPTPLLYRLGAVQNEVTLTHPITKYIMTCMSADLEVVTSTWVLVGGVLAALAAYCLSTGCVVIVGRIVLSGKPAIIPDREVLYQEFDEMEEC
Sequence (P27958 1027-1711, stated change not applied): as above
Assay: Recombinant HCV NS3/4A protease complex FRET peptide assay (strain not stated)
Type: biochemical
Settings: IC50, NS3/4A protease enzyme assay, strain not stated; activity ranges
From the text: The purpose of this in vitro assay was to measure the inhibition of HCV NS3 protease complexes, derived from the BMS, H77C or J416S strains, as described below, by compounds of the present invention. Serum from an HCV-infected patient was obtained from Dr. T. Wright, San Francisco Hospital. […]
pIC50: −log10 of the molar value.

Examples from the recorded data:
C=CC1C[C@]1(NC(=O)[C@@H]1C[C@@H](Oc2cc(-c3ccccc3)nc3cc(OC)ccc23)CN1C(=O)C(NC(=O)OC(C)(C)C)C(C)(C)C)C(=O)NS(=O)(=O)c1ccc(NC(C)=O)cc1 (some centres unmarked) [Compound 58]; > 7.30
C=CCOC(=O)N[C@H](C(=O)N1C[C@H](Oc2cc(-c3ccccc3)nc3cc(OC)ccc23)CC1C(=O)N[C@]1(C(=O)NS(=O)(=O)C2CC2)C[C@H]1C=C)C(C)(C)C (some centres unmarked) [Compound 126]; > 7.30
C=CC1CC1(NC(=O)OC(C)(C)C)C(=O)N1C[C@H](Oc2cc(-c3ccccc3)nc3cc(OC)ccc23)C[C@H]1C(=O)N[C@]1(C(=O)NS(=O)(=O)C2CC2)CC1CC (some centres unmarked) [Compound 69]; > 6.30
C=CC1C[C@]1(NC(=O)[C@@H]1C[C@@H](Oc2cc(-c3ccccc3)nc3cc(OC)ccc23)CN1C(=O)[C@@H](NC(=O)OC(C)(C)C)C(C)(C)C)C(=O)N[S+]([O-])C(C)(C)C (some centres unmarked) [Compound 62]; > 5.30

Req: Look at this compound and give its reported pIC50. C=CC1CC1(NC(=O)[C@@H]1C[C@@H](Oc2cc(-c3ccccc3)nc3cc(OC)ccc23)CN1C(=O)[C@H](CC(C)C)NC(=O)OC(C)(C)C)C(=O)NS(=O)(=O)C(F)(F)F (some centres unmarked) [Compound 84]
Resp: > 5.30
